Each recorded value in this set is attributed to patent US12629354B2.

# test: in vivo
# stated.conditions: female, Sprague-Dawley, rat, im, 100 ug/kg
Counter-ions that a name gives are not always drawn.
quantity.measured: Cmax (ng/mL)
All answers are understood in ng/mL, so give the number only.

Incoming: Entry Cc1cccc([C@H](C)c2cnc[nH]2)c1C [Free Dexmedetomidine, dexmedetomidine hydrochloride] needs its Cmax filled in; supply it.
Outgoing: 11

====

# test: in vivo
# stated.conditions: female, Sprague-Dawley, rat, im, 100 ug/kg
Structures can show the parent of a compound that is named as a salt.
quantity.measured: AUC(0-inf) (ng·h/mL)
All answers are understood in ng·h/mL, so give the number only.

Incoming: Entry Cc1cccc([C@H](C)c2cnc[nH]2)c1C [Free Dexmedetomidine, dexmedetomidine hydrochloride] needs its AUC(0-inf) filled in; supply it.
Outgoing: 35.1
